Target: Sialic acid-binding Ig-like lectin 9 (Homo sapiens)
Assay: Hs-Siglec9 ALPHAscreen SOP 20170721
Parameters: scale not given: direction of the effect not stated beside the values
Details: 10 µM
Consider the following compounds; for each one, report its Percent Effect.
Numeric answer only, unit % assumed.

Exam item: Given c1ncn(CC2CCCN2Cc2cn3ccsc3n2)n1 (stereo unspecified) , state its recorded Percent Effect.
Marked response: -17.1

Exam item: Requested read-out: Percent Effect. Entry: CCOC(=O)N1CCN(c2nc(NC)c3ccccc3n2)CC1
Marked response: 9.22

Exam item: Entry under review: CCc1nc(CN2CCCN(C(=O)c3c(C)noc3C)CC2)cs1 . Reported Percent Effect?
Marked response: -1.6

Exam item: Consider the compound O=C(NCc1ccco1)[C@H]1C[C@H]2OCC[C@H]2N(C(=O)c2ccncc2)C1 and give its measured Percent Effect.
Marked response: 21.8

Exam item: Consider the compound shown here: CCn1ccnc1CN1CCCN(C(=O)Cn2nc(C)cc2C)CC1 What is its recorded Percent Effect?
Marked response: -9.39

Exam item: # lookup: Percent Effect of CCc1noc(C(C)N2CCN(Cc3nnc(C4CC4)o3)CC2)n1 (stereo unspecified)
Marked response: -2.35
